Before we begin, note that these IC50 values for Serine protease 1 (Homo sapiens, UniProt P07477) originate from several publications.

Some solved entries appear below for comparison.
itemSmiles	result
CN1CCN(C(=O)c2ccc(NC(=O)COc3cccc(C(=N)N)c3)cc2)CC1	> 10 µM
CC(=N)N(C)Cc1ccc(C(=O)Nc2ccc(Cl)cc2C(=O)Nc2ccc(Cl)cn2)cc1	> 11 µM
CCN(CC)C(=O)c1cccc(-c2ccc3c(c2)[C@@H]2[C@@H](CCCCC(=N)N)C(=O)N(C(=O)N(C)C)[C@H]2C3)c1	> 20 µM

Q: For the compound shown here, "O=C(CCc1ccc2[nH]c(-c3ccc(Cl)s3)nc2c1)Nc1ccc(-n2ccccc2=O)c(F)c1" , give the reported IC50.
Ans: > 10 µM

---

// read-out IC50, gathered for Serine protease 1 (Homo sapiens, UniProt P07477) from published studies

Consider the worked cases shown below.
compound	targetOfAssay	IC50
CC(C)[C@@H]1C(=O)N(S(C)(=O)=O)[C@@H]2CCN(C(=O)C3CN(CC(C)(C)C)C3)[C@H]21.Cl	Serine protease 1 (Homo sapiens, UniProt P07477)	> 100 µM
N=C(N)NCCC[C@H](NC(=O)[C@@H]1CC[C@H]2CN(C(=O)CCc3ccccc3)CC(=O)N21)C(=O)c1nccs1	Serine protease 1 (Homo sapiens, UniProt P07477)	< 0.001 µM
N=C(N)c1cccc(OCC(=O)Nc2ccc(C(=O)N3CCCCCC3)cc2)c1	Serine protease 1 (Homo sapiens, UniProt P07477)	> 10 µM
CC1CC(=O)NN=C1c1ccc2[nH]c(-c3ccc(Br)s3)nc2c1 (configuration not stated)	Serine protease 1 (Homo sapiens, UniProt P07477)	> 10 µM
CCN(CC)C(=O)c1cccc(-c2ccc3c(c2)[C@@H]2[C@@H](CCCCC(=N)N)C(=O)N(CCCCCc4ccccc4)[C@H]2C3)c1	Serine protease 1 (Homo sapiens, UniProt P07477)	> 50 µM
Cc1cc(C(=O)Nc2ccc(-c3ccccc3S(N)(=O)=O)cc2)n(-c2cc3ccccc3cc2F)n1	Serine protease 1 (Homo sapiens, UniProt P07477)	> 11 µM

Now look at this one.
Q: IC50 lookup needed for "N=C(N)NCc1ccc(C(=O)Nc2ccc(Cl)cc2C(=O)Nc2ccc(Cl)cn2)cc1" , thanks.
Ans: > 11 µM

---

Compiled notes: published IC50 values involving Serine protease 1 (Homo sapiens, UniProt P07477).

Some solved cases for reference:
itemSmiles	IC50
CN(C)C1=NCCN1Cc1ccc(C(=O)Nc2ccc(Cl)cc2C(=O)Nc2ccc(Cl)cn2)cc1	> 11 µM
Cc1cc(C(=O)Nc2ccc(-c3ccccc3S(N)(=O)=O)cc2)n(-c2cc3ccccc3cc2C(=O)O)n1	> 11 µM
N=C(N)c1cccc(C(=O)N2CCC[C@H]2C(=O)Nc2ccc(-c3ccccc3S(N)(=O)=O)cc2)c1	> 10 µM
Cc1cc(C(=O)Nc2ccc(-c3ccccc3S(N)(=O)=O)cc2)n(-c2cc3ccccc3cc2CO)n1	> 11 µM
Cc1cc(C(=O)Nc2ccc(-c3ccccc3S(N)(=O)=O)cc2)n(-c2cc3ccccc3cc2Br)n1	> 11 µM

Hi, could you look up IC50 for each item in my list?
1. CN(C)Cc1ccc(C(=O)Nc2ccc(Cl)cc2C(=O)Nc2ccc(Cl)cn2)cc1
2. CCC[C@@H](NC(=O)Nc1ccc(Cl)cc1)C(=O)Nc1ccc(N2CCOCC2=O)cc1

Ans:
1: > 11 µM; 2: > 10 µM

Q: May I ask what IC50 has been recorded for "Cc1cc(C(=O)Nc2ccc(N3CCOCC3=O)cc2F)n(-c2cc3ccccc3cc2S(C)(=O)=O)n1" ?
Ans: > 10 µM
